# IC50 listing for each entry below
target: human A2A receptor (A2AR) (Homo sapiens (Human), UniProt P29274); test: Luciferase reporter assay (HEK293-A2AR-luc2p/CRE/Hygro cells); type: cell-based; conditions: 3 nM CGS21680, 5 h incubation
Sequence (P29274 whole entry): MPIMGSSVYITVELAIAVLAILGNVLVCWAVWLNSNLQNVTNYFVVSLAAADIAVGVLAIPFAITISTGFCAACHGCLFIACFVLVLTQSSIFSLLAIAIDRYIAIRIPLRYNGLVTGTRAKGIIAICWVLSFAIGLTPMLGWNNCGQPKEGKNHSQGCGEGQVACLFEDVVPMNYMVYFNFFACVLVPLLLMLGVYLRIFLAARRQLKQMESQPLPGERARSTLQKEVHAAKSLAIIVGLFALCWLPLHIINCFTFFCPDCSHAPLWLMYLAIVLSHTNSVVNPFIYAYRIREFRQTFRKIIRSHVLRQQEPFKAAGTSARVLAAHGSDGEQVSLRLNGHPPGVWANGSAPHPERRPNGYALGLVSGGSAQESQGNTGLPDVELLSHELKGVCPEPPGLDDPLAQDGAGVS

Compound: CC(C(=O)NCc1cccnc1)(c1ccccc1)n1ncc2c1nc(N)n1nc(-c3ccco3)nc21 (stereo not shown) [Example 84]
IC50 (nM): 17

Compound: CC1(O)CC(NC(=O)[C@@](C)(c2ccccc2)n2ncc3c2nc(N)n2nc(-c4ccco4)nc32)C1 (stereo in doubt) [Example 105B]
IC50 (nM): 5

Compound: CC(C(=O)N[C@H]1CCCC[C@H]1O)(c1ccccc1)n1ncc2c1nc(N)n1nc(-c3ccco3)nc21 (stereo partly shown) [Example 58A]
IC50 (nM): 14.2

Compound: Nc1nc2c(cnn2C(C(=O)N[C@H]2CCCC[C@H]2O)c2ccccc2)c2nc(-c3ccco3)nn12 (stereo partly shown) [Example 91]
IC50 (nM): 15.1

---

molecular target: human A2A receptor (A2AR) (Homo sapiens (Human), UniProt P29274); assay: Luciferase reporter assay (HEK293-A2AR-luc2p/CRE/Hygro cells); format: cell-based; settings: 3 nM CGS21680, 5 h incubation
Simple rule here: IC50 less than 30 nM is 1 (yes), otherwise 0 (no).

Compound: CC(C(=O)NC1CCNCC1)(c1ccccc1)n1ncc2c1nc(N)n1nc(-c3ccco3)nc21 (centres unmarked)
Answer label: 0 (no)
--
Compound: CC(C(=O)N[C@H]1C[C@@H](O)C1)(c1ccccc1)n1ncc2c1nc(N)n1nc(-c3ccco3)nc21 (some centres unmarked)
Answer label: 1 (yes)
--
Compound: Cc1cccc(CCNC(=O)[C@@](C)(c2ccccc2)n2ncc3c2nc(N)n2nc(-c4ccco4)nc32)n1 [Example 150B]
Answer label: 1 (yes)
--
Compound: Nc1nc2c(cnn2C(C(=O)Nc2ccccc2)c2ccccc2)c2nc(-c3ccco3)nn12 (centres unmarked)
Answer label: 1 (yes)
--
Compound: CC(C(=O)N[C@H]1CC[C@@H](O)CC1)(c1ccccc1)n1ncc2c1nc(N)n1nc(-c3ccco3)nc21 (relative stereo)
Answer label: 1 (yes)
--
Compound: CC(C(=O)N[C@H]1CCC[C@@H](O)C1)(c1ccccc1)n1ncc2c1nc(N)n1nc(-c3ccco3)nc21 (some centres unmarked)
Answer label: 1 (yes)
--
Compound: CC(C(=O)Nc1cccnc1)(c1ccccc1)n1ncc2c1nc(N)n1nc(-c3ccco3)nc21 (centres unmarked)
Answer label: 0 (no)
--
Compound: CC(C(=O)N[C@H]1CC[C@H](O)C1)(c1ccccc1)n1ncc2c1nc(N)n1nc(-c3ccco3)nc21 (some centres unmarked)
Answer label: 1 (yes)

---

molecular target: human A2A receptor (A2AR) (Homo sapiens (Human), UniProt P29274); test: Luciferase reporter assay (HEK293-A2AR-luc2p/CRE/Hygro cells); assay type: cell-based; details: 3 nM CGS21680, 5 h incubation
Output 1.0 for records whose IC50 is lower than 5 nM, 0.0 for records at or above 5 nM.

Molecule: Nc1nc2c(cnn2C(C(=O)NCc2cccc(C3(O)CCC3)n2)c2ccccc2)c2nc(-c3ccco3)nn12 (stereo not drawn) [Example 18]
Answer label: 1.0
--
Molecule: C[C@](C(=O)NCc1ccccn1)(c1ccccc1)n1ncc2c1nc(N)n1nc(-c3ccco3)nc21 [Example 66B]
Answer label: 1.0
--
Molecule: COc1ccnc(CNC(=O)[C@@](C)(c2ccccc2)n2ncc3c2nc(N)n2nc(-c4ccco4)nc32)c1 [Example 114B]
Answer label: 1.0
--
Molecule: Nc1nc2c(cnn2C2(C(=O)NCC3(O)COC3)CCCc3ccccc32)c2nc(-c3ccco3)nn12 (stereo not drawn) [Example 93]
Answer label: 1.0
--
Molecule: CC(C(=O)NCC1(O)CCC1)(c1ccccc1)n1ncc2c1nc(N)n1nc(-c3ccco3)nc21 (stereo not drawn) [Example 71]
Answer label: 1.0
--
Molecule: COCCOc1ccc(N2CCC(NC(=O)C(C)(c3ccccc3)n3ncc4c3nc(N)n3nc(-c5ccco5)nc43)CC2)cc1 (stereo not drawn) [Example 46]
Answer label: 0.0
--
Molecule: Cc1nccnc1-c1nc2c3cnn(C(C)(C(=O)NCC4(O)COC4)c4ccccc4)c3nc(N)n2n1 (stereo not drawn) [Example 78]
Answer label: 0.0
--
Molecule: C[C@](C(=O)N[C@@H]1CCCC[C@@H]1O)(c1ccccc1)n1ncc2c1nc(N)n1nc(-c3ccco3)nc21 [Example 58B]
Answer label: 1.0
--
Molecule: CC(C(=O)NC[C@@H]1CCCO1)(c1ccccc1)n1ncc2c1nc(N)n1nc(-c3ccco3)nc21 (stereo partly drawn) [Example 51]
Answer label: 1.0
--
Molecule: CC(C(=O)Nc1ccccn1)(c1ccccc1)n1ncc2c1nc(N)n1nc(-c3ccco3)nc21 (stereo not drawn) [Example 77]
Answer label: 0.0
--
Molecule: CC(C(=O)N[C@H]1CC[C@H](O)CC1)(c1ccccc1)n1ncc2c1nc(N)n1nc(-c3ccco3)nc21 (relative stereo) [Example 52]
Answer label: 0.0
--
Molecule: C[C@H](NC(=O)C(c1ccccc1)n1ncc2c1nc(N)n1nc(-c3ccco3)nc21)c1ccccc1 (stereo partly drawn) [Example 9]
Answer label: 0.0
--
Molecule: CC(C(=O)NC1CCCC(O)C1)(c1ccccc1)n1ncc2c1nc(N)n1nc(-c3ccco3)nc21 (stereo not drawn) [Example 99]
Answer label: 0.0
--
Molecule: CC(C(=O)NCC1(O)COC1)(c1cccnc1)n1ncc2c1nc(N)n1nc(-c3ccco3)nc21 (stereo not drawn) [Example 89]
Answer label: 0.0
--
Molecule: CC(C(=O)NC1CCC(=O)CC1)(c1ccccc1)n1ncc2c1nc(N)n1nc(-c3ccco3)nc21 (stereo not drawn) [Example 128]
Answer label: 0.0
--
Molecule: Nc1nc2c(cnn2[C@H](C(=O)NCC2(O)COC2)c2ccccc2)c2nc(-c3ccco3)nn12 [Example 82B]
Answer label: 1.0
--
Molecule: CC(C(=O)N[C@H]1C[C@@](C)(O)C1)(c1ccccc1)n1ncc2c1nc(N)n1nc(-c3ccco3)nc21 (stereo partly drawn) [Example 105]
Answer label: 0.0
--
Molecule: CC(C(=O)NC1CCC(O)C1)(c1ccccc1)n1ncc2c1nc(N)n1nc(-c3ccco3)nc21 (stereo not drawn) [Example 36]
Answer label: 0.0
--
Molecule: CC(C(=O)N[C@H]1CCCC[C@@H]1O)(c1ccccc1)n1ncc2c1nc(N)n1nc(-c3ccco3)nc21 (stereo partly drawn) [Example 57]
Answer label: 0.0
--
Molecule: Nc1nc2c(cnn2C(C(=O)NC2COc3ccccc32)c2ccccc2)c2nc(-c3ccco3)nn12 (stereo not drawn) [Example 20]
Answer label: 0.0
--
Molecule: C[C@](C(=O)N[C@H]1C[C@@H](O)C1)(c1ccccc1)n1ncc2c1nc(N)n1nc(-c3ccco3)nc21 [Example 104B]
Answer label: 0.0
--
Molecule: C[C@](C(=O)NCc1ccc(C(F)(F)F)cn1)(c1ccccc1)n1ncc2c1nc(N)n1nc(-c3ccco3)nc21 [Example 142B]
Answer label: 1.0
--
Molecule: CC(C(=O)N[C@H]1CCCNC1)(c1ccccc1)n1ncc2c1nc(N)n1nc(-c3ccco3)nc21 (stereo partly drawn) [Example 68]
Answer label: 0.0

The measurements presented in this section are drawn from patent US11472811B2.
